Experiment: Antioxidant activity assessed as inhibition of linoleic acid peroxidation at 100 ug by FTC method
Assay type: functional
# cutoff 20% applies to inhibition; >= gives TRUE, < gives FALSE

Please check the record O=C1CCC(=O)N1C(Nc1ccccn1)c1ccccc1 (stereo not drawn) and state if its inhibition is at or above 20%. FALSE

Please check the record O=C1O[C@H]([C@@H](O)CO)C(O)=C1O and state if its inhibition is at or above 20%. TRUE

Please check the record O=C1c2ccccc2C(=O)N1CNc1ccccc1 and state if its inhibition is at or above 20%. FALSE

Please check the record Oc1cc2ccccc2cc1Cn1cccc1 and state if its inhibition is at or above 20%. FALSE

Please check the record O=C1CCC(=O)N1CNc1ccccc1 and state if its inhibition is at or above 20%. FALSE

Please check the record O=C(NC(c1ccccc1)c1cc2ccccc2cc1O)NC(c1ccccc1)c1cc2ccccc2cc1O (stereo not drawn) and state if its inhibition is at or above 20%. FALSE

----------
Record form. Attribute: inhibition. Fill in for each entry.
Experiment: Antioxidant activity assessed as inhibition of linoleic acid peroxidation at 25 ug by FTC method
Assay type: functional
A number alone suffices; assume %.

inhibition for O=C(NC(c1ccccc1)c1cc2ccccc2cc1O)NC(c1ccccc1)c1cc2ccccc2cc1O (stereo not drawn) ? 17

inhibition for Oc1cc2ccccc2cc1Cn1cccc1 ? 10

inhibition for O=C1c2ccccc2C(=O)N1CNc1ccccc1 ? 11

inhibition for O=C1CCC(=O)N1CNc1ccccc1 ? 12

inhibition for O=C1CCC(=O)N1C(Nc1ccccn1)c1ccccc1 (stereo not drawn) ? 15

inhibition for O=C1CCC(=O)N1CNc1ccccn1 ? 18

inhibition for O=C1CCC(=O)N1C(Nc1ccccc1)c1ccccc1 (stereo not drawn) ? 16

inhibition for O=C1O[C@H]([C@@H](O)CO)C(O)=C1O ? 27.2

Recorded values, source ChEMBL document CHEMBL3044727.
